A collection of compounds and their measured growth AUC
System: Fusobacterium nucleatum subsp. animalis
Assay: growth AUC relative to DMSO control (median of replicates) (fraction); higher = more growth (less inhibition), active = hit call of the paper
Conditions: 20 µM; 24 h
Hey, just send me the number, nothing else.

Report measured growth AUC; entry is O=c1c2cc(F)ccc2nc(-n2cncn2)n1-c1ccc(Cl)cc1Cl
0.976

Report measured growth AUC; entry is OC(Cc1ccccc1Cl)(Cn1[nH]cnc1=S)C1(Cl)CC1 (stereo not given)
1.02

Give growth AUC for the following compound: CNC(=O)Oc1cc(C)c(SC)c(C)c1
0.984

Item O=C(O)C(F)(F)C(F)(F)C(F)(F)C(F)(F)C(F)(F)C(F)(F)C(F)(F)C(F)(F)C(F)(F)F : provide growth AUC
1.01

Check the records and state growth AUC for CCc1cnc(C2=NC(C)(C(C)C)C(=O)N2)c(C(=O)O)c1 (stereo not given)
0.981

====

System: Escherichia coli IAI1
Assay: growth AUC relative to DMSO control (median of replicates) (fraction); higher = more growth (less inhibition), active = hit call of the paper
Details: 20 µM; 24 h
# maps each entry to its growth AUC

Sample answers from the record:
- compound: "CCCOCCN(C(=O)CCl)c1c(CC)cccc1CC"
  growth AUC: "0.985 (inactive)"
- compound: "CC(C)(C)C(O)C(Oc1ccc(Cl)cc1)n1cncn1 (stereo unspecified)"
  growth AUC: "1.02 (inactive)"
- compound: "COC(=O)NCc1cc(/C(C)=N\\OCc2cccc(C)n2)ccc1Cl"
  growth AUC: "0.995 (inactive)"
- compound: "CC(C)N1C(=O)N(c2ccccc2)CSC1=NC(C)(C)C"
  growth AUC: "1.02 (inactive)"
- compound: "CCS(=O)c1c(C#N)nn(-c2c(Cl)cc(C(F)(F)F)cc2Cl)c1N (stereo unspecified)"
  growth AUC: "0.995 (inactive)"
- compound: "CN=C=S"
  growth AUC: "1.01 (inactive)"
- compound: "Clc1ccc(C(c2ccc(Cl)cc2)C(Cl)(Cl)Cl)cc1"
  growth AUC: "0.979 (inactive)"
- compound: "COP(=O)(OC)O/C(C)=C/C(=O)N(C)C"
  growth AUC: "0.997 (inactive)"

Give growth AUC for the following compound: COP(=S)(OC)Oc1ccc(C#N)cc1
1.02 (inactive)

Recall and state the measured growth AUC for CC(C)(C)C(O)C(Cc1ccc(Cl)cc1Cl)n1cncn1 (mixture of isomers) .
0.979 (inactive)

For the compound NC(=S)c1c(Cl)cccc1Cl , give its reported growth AUC.
0.979 (inactive)

Note down growth AUC recorded for Cc1cnc2c(C(=O)O)c(Cl)ccc2c1
0.987 (inactive)

====

System: Bacteroides stercoris
Experiment: growth AUC relative to DMSO control (median of replicates) (fraction); higher = more growth (less inhibition), active = hit call of the paper
Details: 20 µM; 24 h
parameter.measured: growth AUC

Completed entries (count: 3):
- compound: "CC1=NNC(=O)N(/N=C/c2cccnc2)C1"
  growth AUC: "1.01 (inactive)"
- compound: "COP(=S)(OC)Oc1ccc(S(N)(=O)=O)cc1"
  growth AUC: "0.984 (inactive)"
- compound: "Nc1nc(N)[nH]c(=O)n1"
  growth AUC: "1 (inactive)"

We next turn to a different compound, shown below.
Dear colleague, please send me the reported growth AUC for COP1(=S)OCc2ccccc2O1 (configuration not stated) when you can.
1.02 (inactive)

====

Tested on: Bacteroides thetaiotaomicron
Assay: growth AUC relative to DMSO control (median of replicates) (fraction); higher = more growth (less inhibition), active = hit call of the paper
Conditions: 20 µM; 24 h
Classify by measured growth AUC: Fulfilled if it is equal to or exceeds 1, Not fulfilled if it is smaller.

Known results for compounds:
- compound: "CCOP(=O)(OCC)O/C(=C\\Cl)c1ccc(Cl)cc1Cl"
  experimental.target: "Bacteroides thetaiotaomicron"
  label.value: "Not fulfilled"
- compound: "ClC(Cl)=C(c1ccc(Cl)cc1)c1ccc(Cl)cc1"
  experimental.target: "Bacteroides thetaiotaomicron"
  label.value: "Not fulfilled"
- compound: "COCc1c(F)c(F)c(COC(=O)[C@@H]2[C@@H](C=C(Cl)Cl)C2(C)C)c(F)c1F"
  experimental.target: "Bacteroides thetaiotaomicron"
  label.value: "Fulfilled"
- compound: "CCOP(=O)(OCC)ON1C(=O)c2cccc3cccc(c23)C1=O"
  experimental.target: "Bacteroides thetaiotaomicron"
  label.value: "Not fulfilled"

# check: growth AUC of CCCCC(O)(Cn1cncn1)c1ccc(Cl)cc1Cl (stereo not drawn) is greater than or equal to 1
Not fulfilled

====

Tested on: Roseburia intestinalis
Experiment: growth AUC relative to DMSO control (median of replicates) (fraction); higher = more growth (less inhibition), active = hit call of the paper;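 active = AUC reduced over 20% with Padj below 0.05 in at least 2 of 3 replicates; inactive = otherwise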
Settings: 20 µM; 24 h
Select the matching outcome among t = active, f = inactive

- compound: "CNC(=O)ON=C(CSC)C(C)(C)C"
  experimental.target: "Roseburia intestinalis"
  label.value: "f"
- compound: "CCCSC(=O)N(CCC)CCC"
  experimental.target: "Roseburia intestinalis"
  label.value: "f"
- compound: "COP1(=S)OCc2ccccc2O1 (configuration not stated)"
  experimental.target: "Roseburia intestinalis"
  label.value: "f"
- compound: "Oc1c(Br)cc(Br)cc1Br"
  experimental.target: "Roseburia intestinalis"
  label.value: "f"
- compound: "CCSCc1ccccc1OC(=O)NC"
  experimental.target: "Roseburia intestinalis"
  label.value: "f"

Returns: the outcome recorded for CNC(=O)O/N=C(\C)C(C)S(C)(=O)=O (configuration not stated) in this assay.
f

So what was the verdict on CON(C)C(=O)Nc1ccc(Br)cc1 in this test?
f

Hello, I am checking results. What call was entered for CC(C)=CC1C(C(=O)OCc2cccc(Oc3ccccc3)c2)C1(C)C (mixture of isomers) ?
f

Record lookup: outcome of this test for ClCC(Br)CBr (configuration not stated) ?
f

Which result was noted for this compound in the test: CC(C)=NOCCOC(=O)[C@@H](C)Oc1ccc(Oc2cnc3cc(Cl)ccc3n2)cc1
f

Outcome? CCOP(=O)(SC(C)CC)N1CCSC1=O (configuration not stated)
f

GET /call?item= CC1(C)C(/C=C(\Cl)C(F)(F)F)C1C(=O)OC(C#N)c1cccc(Oc2ccccc2)c1 (configuration not stated) returns the recorded outcome of this test.
f

Please state the recorded outcome for this compound: c1cc2c3c(cccc3c1)CC2
f

Dear all, I need the recorded test outcome for OC(Cn1cncn1)(c1ccc(F)cc1)c1ccccc1F (configuration not stated) , thank you.
f

Hey, what did the test say about Nc1nc(N)[nH]c(=O)n1 ?
f

Please let me know the test result on file for CCCCC(CC)COC(=O)c1ccccc1C(=O)OCC(CC)CCCC (configuration not stated) .
f

====

System: Coprococcus comes
Test: growth AUC relative to DMSO control (median of replicates) (fraction); higher = more growth (less inhibition), active = hit call of the paper
Conditions: 20 µM; 24 h
Here the recorded growth AUC is given for each entry.
Format: numeric value only, no unit, no commentary.

- smiles: "CN(C(=O)COc1nc2ccccc2s1)c1ccccc1"
  growth AUC: 1.01
- smiles: "O=C1C=C(N(Cc2ccc(Cl)nc2)CC(F)F)CO1"
  growth AUC: 1.02
- smiles: "CCOP(=O)(Sc1ccccc1)Sc1ccccc1"
  growth AUC: 1.02

Consider the compound CS(=O)(=O)c1ccc(C(=O)C2C(=O)CCCC2=O)c([N+](=O)[O-])c1 . State its measured growth AUC.
0.966

====

Test system: Escherichia coli ED1a
Assay: growth AUC relative to DMSO control (median of replicates) (fraction); higher = more growth (less inhibition), active = hit call of the paper
Settings: 20 µM; 24 h
Measured growth AUC values are reported for all entries that follow.
// return a plain number; no unit text

These recorded examples may help you get a feel for the data.
- compound: "O=C1C=C(N(Cc2ccc(Cl)nc2)CC(F)F)CO1"
  growth AUC: 0.971
- compound: "COP(=S)(OC)Oc1ccc(S(=O)(=O)N(C)C)cc1"
  growth AUC: 1
- compound: "CCCSP(=S)(OCC)Oc1ccc(Cl)cc1Cl (stereo not drawn)"
  growth AUC: 1.05
- compound: "COP(=O)(OC)OC(Br)C(Cl)(Cl)Br (stereo not drawn)"
  growth AUC: 0.991
- compound: "CCCSP(=O)(OCC)SCCC"
  growth AUC: 1.02
- compound: "CNC(=O)Oc1cccc2c1OC(C)(C)C2=O"
  growth AUC: 1.03
- compound: "Nc1c(Cl)c(Cl)c(Cl)c(Cl)c1Cl"
  growth AUC: 0.986
- compound: "O=c1[nH]c2c(c(=O)n1C1CCCCC1)CCC2"
  growth AUC: 0.99

Name the recorded growth AUC of the item CCOP(=S)(OCC)Oc1ccc(S(C)=O)cc1 (stereo not drawn) in your answer.
1

Read off the recorded growth AUC for CNC(=O)Oc1ccccc1OC(CCl)OC (stereo not drawn)
1.02

Report growth AUC, nothing else, for this compound: N#Cc1cc(Br)c(O)c(Br)c1
0.907

Supply reported growth AUC belonging to this compound: ClC1=C(Cl)[C@]2(Cl)[C@@H]3[C@H]4C[C@H]([C@@H]5O[C@H]45)[C@@H]3[C@@]1(Cl)C2(Cl)Cl
0.994

Please list growth AUC recorded for the compound CC(C)=CC1C(C(=O)OCc2coc(Cc3ccccc3)c2)C1(C)C (stereo not drawn)
0.996

Fill in growth AUC for record CC(C)Nc1nc(Cl)nc(NC(C)C)n1
1.03

Let me know recorded growth AUC for CCNc1nc(NC(C)C)nc(SC)n1 , thanks.
0.974

Provide only the value of recorded growth AUC for O=C(O)C(Cl)Cl
1.01

Please give the documented growth AUC of COP(=S)(OC)Oc1ccc(SC)c(C)c1
0.997

Please indicate growth AUC recorded for COC(=O)C(C)(Cl)Cl
0.977

Query growth AUC for COP(=S)(OC)Oc1ccc(S(C)(=O)=O)c(C)c1
0.991

Item COP(=S)(OC)Oc1ccc(C#N)cc1 : provide growth AUC
1.04

Please give measured growth AUC of the following entry: Oc1ccc(Cl)cc1Cc1cc(Cl)ccc1O
0.793

Specify growth AUC for Nc1cc(Cl)cc(Cl)c1 and stop.
1.03

Give the value of growth AUC reported for the following: Cc1[nH]c(=O)n(C(C)(C)C)c(=O)c1Cl
0.983

Write down growth AUC measured for item CCNc1nc(NCC)nc(SC)n1
1.02

Please give measured growth AUC of the following entry: O=[N+]([O-])/N=C1\NCCN1Cc1ccc(Cl)nc1
1.02

Please supply the value of reported growth AUC for the item COC(=O)N(OC)c1ccccc1COc1ccn(-c2ccc(Cl)cc2)n1
1.02
